assay-target: FLT3 D835H (Homo sapiens, UniProt P36888, D835H)
Construct: host or cells: E. coli BL21-derived host (T7 phage) or HEK-293
Sequence (P36888 27-993 D835H): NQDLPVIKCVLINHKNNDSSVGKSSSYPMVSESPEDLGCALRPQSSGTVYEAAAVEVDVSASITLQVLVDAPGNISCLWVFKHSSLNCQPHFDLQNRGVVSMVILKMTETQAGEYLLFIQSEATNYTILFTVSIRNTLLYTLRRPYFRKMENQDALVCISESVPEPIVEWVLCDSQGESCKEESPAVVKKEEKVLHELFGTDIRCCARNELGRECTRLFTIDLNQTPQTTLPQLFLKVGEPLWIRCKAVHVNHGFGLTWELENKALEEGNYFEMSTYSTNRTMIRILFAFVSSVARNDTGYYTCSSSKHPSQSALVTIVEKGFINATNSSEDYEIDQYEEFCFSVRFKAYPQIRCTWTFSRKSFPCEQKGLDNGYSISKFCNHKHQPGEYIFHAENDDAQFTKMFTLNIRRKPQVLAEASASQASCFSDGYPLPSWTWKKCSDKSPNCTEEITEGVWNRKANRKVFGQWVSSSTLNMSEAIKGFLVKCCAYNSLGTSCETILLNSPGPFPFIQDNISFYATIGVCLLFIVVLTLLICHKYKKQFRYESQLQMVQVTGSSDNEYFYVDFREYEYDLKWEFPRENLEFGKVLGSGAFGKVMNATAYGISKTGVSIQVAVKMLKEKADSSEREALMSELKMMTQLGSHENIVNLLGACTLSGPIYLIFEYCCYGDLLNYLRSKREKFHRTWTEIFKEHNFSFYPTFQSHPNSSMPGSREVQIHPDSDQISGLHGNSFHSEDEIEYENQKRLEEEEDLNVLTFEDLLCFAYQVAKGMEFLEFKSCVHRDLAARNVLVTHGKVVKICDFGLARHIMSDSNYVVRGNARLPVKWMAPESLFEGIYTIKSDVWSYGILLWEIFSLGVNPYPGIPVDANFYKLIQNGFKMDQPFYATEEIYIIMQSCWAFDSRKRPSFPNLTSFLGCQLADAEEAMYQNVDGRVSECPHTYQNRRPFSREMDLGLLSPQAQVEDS
experiment: DiscoverX KINOMEscan competition binding, FLT3 D835H
reported-metric: Kd

>>> reported("F[C@H]1CNC[C@@H]1Nc1cccc(-c2cnc3cnc(C4CC4)cn23)n1")
"0.032 nM"
>>> reported("FC(F)(F)C1(c2cn3c(-c4cccc(N[C@@H]5CCNC5)n4)cnc3cn2)CC1")
"0.082 nM"
>>> reported("CC(C)(O)c1cn2c(-c3cccc(N[C@H]4CNCC[C@@H]4F)n3)cnc2cn1")
"0.43 nM"
>>> reported("CC1(c2cn3c(-c4cccc(N[C@H]5CNCC56CC6)n4)cnc3cn2)CC1")
"0.063 nM"
>>> reported("CC1(c2cn3c(-c4cccc(N[C@H]5CNC[C@@H]5F)n4)cnc3cn2)CC1")
"0.066 nM"
>>> reported("CC1(c2cn3c(-c4cccc(N[C@@H]5CCNC5)n4)cnc3cn2)CC1")
"0.059 nM"
>>> reported("FC(F)c1cn2c(-c3cccc(N[C@H]4CNC[C@@H]4F)n3)cnc2cn1")
"0.2 nM"

---

Test system: MOLM14 D835Y cells
experiment: MOLM14 D835Y cell viability assay (Cell Titer Glo)
Assay type: cell-based
settings: Homo sapiens, MOLM-14, 48 h
pIC50: −log10 of the molar value.
reported-metric: pIC50

>>> reported("Cn1cc(-c2cn3c(-c4cccc(N[C@@H]5CCNC5)n4)cnc3cn2)cn1 [Compound 49]")
8.05
>>> reported("O=C1NCCN1c1cn2c(-c3cccc(N[C@@H]4CCCNC4)n3)cnc2cn1 [Compound 116]")
7.41
>>> reported("CC(C)(O)c1cn2c(-c3cccc(N[C@H]4CNCC[C@@H]4F)n3)cnc2cn1 [Compound 31]")
7.20
>>> reported("CC(O)(c1cn2c(-c3cccc(N[C@@H]4CCCNC4)n3)cnc2cn1)C(F)(F)F (single isomer, unassigned) [Compound 81]")
7.52
>>> reported("Cn1cc(-c2cn3c(-c4cccc(N[C@H]5CNC[C@@H]5F)n4)cnc3cn2)cn1 [Compound 52]")
7.96
>>> reported("O=S1(=O)CCCN1c1cn2c(-c3cccc(N[C@H]4CNC[C@@H]4F)n3)cnc2cn1 [Compound 95]")
7.68
